Data provenance is PubChem BioAssay.

assay.protocol: inhibitors of poly I:C-induced TLR3 signaling, primary screen, cell-based, poly I:C stimulus, luciferase, 10K MLSCN set (AID 602277)
run.conditions: HEK293-TLR3 RL24 IRF3 luciferase reporter, at 10 µM, stronger effect = higher value
parameter: inhibition (%)
// note: answer is a bare numeric in %

stdin: Entry CC1CCc2cc(F)cc3c(O)c(C(=O)Nc4cnccn4)c(=O)n1c23 (stereo unspecified) has what inhibition?
stdout: 21.7

stdin: Entry `c1ccc(CN2CCN(c3ncnc4c3[nH]c3ccccc34)CC2)cc1` has what inhibition?
stdout: -46.7

stdin: Entry `CC(C)Oc1ccc2c(=O)c(-c3ccccc3)coc2c1` has what inhibition?
stdout: -186

stdin: Entry `CCn1cc(C(=O)O)c(=O)c2cc(F)c(N3CCNCC3)nc21` has what inhibition?
stdout: 17.6

stdin: Entry CN1C2C=C3C(C#N)=C(N)C(C#N)(C#N)[C@@H](c4ccc(Cl)cc4)[C@@H]3C1CC2 (stereo partly specified) has what inhibition?
stdout: 29.9

stdin: Entry `Cc1ccc(-n2ncc3c(N4CCN(c5ccccc5)CC4)ncnc32)c(C)c1` has what inhibition?
stdout: -19.9

stdin: Entry `CCSc1nc(N)c(C#N)c(-c2ccccc2Cl)c1C#N` has what inhibition?
stdout: 7.05

stdin: Entry `Cc1cc(NS(=O)(=O)c2ccc(N)cc2)no1` has what inhibition?
stdout: 31.9

stdin: Entry `CCN(CC)C(=O)c1ccc(O)c(OC)c1` has what inhibition?
stdout: 27.6

stdin: Entry `C[C@@H]1C[C@H]2[C@@H]3C[C@H](F)C4=CC(=O)C=C[C@]4(C)[C@@]3(F)[C@@H](O)C[C@]2(C)[C@@]1(O)C(=O)CO` has what inhibition?
stdout: 33.6

stdin: Entry `CC(=O)[C@@]1(O)CC[C@H]2[C@@H]3C[C@H](C)C4=CC(=O)CC[C@]4(C)[C@H]3CC[C@@]21C` has what inhibition?
stdout: 43.2

---

assay.protocol: DUSP6 inhibitors restoring Erk phosphorylation by chemical complementation, primary imaging in DUSP6-transfected HeLa (AID 609)
run.conditions: HeLa MKP-3 transfected, phospho-Erk imaging KS statistic; measured here: nuclear c-Myc green intensity z-score; at 10 µM; cells stimulated with TPA for 15 min
Give measured z-score for each item. Keep answers brief.
Give the figure only, with no unit attached.

stdin: Entry `CC(C)Cc1[nH]c(=O)c(C#N)c2c1CCCC2` has what z-score?
stdout: 0.566

stdin: Entry C=CCOC(=O)C(C#N)c1nc2ccccc2nc1N1CCN(c2ccccc2OCC)CC1 (centres undefined) has what z-score?
stdout: -0.297

stdin: Entry NC(Cc1ccc(Oc2ccc(O)cc2)cc1)C(=O)O (centres undefined) has what z-score?
stdout: -1.56

stdin: Entry `Cc1cc(NC(=O)C2=C(O)c3ccccc3S(=O)(=O)N2C)no1` has what z-score?
stdout: 0.415

stdin: Entry `c1ccc(-c2nnc3n2N=C(c2ccc4c(c2)OCO4)CS3)nc1` has what z-score?
stdout: 0.912

stdin: Entry `CSc1nc(N)nc(SCC(=O)CC(=O)OC(C)C)c1C#N` has what z-score?
stdout: -0.157

stdin: Entry O=C(O)C1CCCCN1S(=O)(=O)c1cccc2nsnc12 (centres undefined) has what z-score?
stdout: 0.334

stdin: Entry CCCSC1=C(C#N)C(c2ccc(OC)cc2)C2=C(CC(C)(C)CC2=O)N1 (centres undefined) has what z-score?
stdout: -0.891

stdin: Entry `COC(=O)CCc1c(C)[nH]c(C(=O)OCc2ccccc2)c1C` has what z-score?
stdout: -0.0699

stdin: Entry `COc1cccc(-c2nc(N3CCC(C)CC3)c3ccccc3n2)c1O` has what z-score?
stdout: -0.819

stdin: Entry `CC(=O)Nc1nnc(S(N)(=O)=O)s1` has what z-score?
stdout: -1.08

stdin: Entry `Cn1c(OCc2ccco2)nc2c1c(=O)n(Cc1ccc(Cl)c(Cl)c1)c(=O)n2C` has what z-score?
stdout: 0.078

stdin: Entry COc1ccc(N2CCN(C3CC(=O)NC3=O)CC2)cc1 (centres undefined) has what z-score?
stdout: -0.641

stdin: Entry `Cn1cc(NC(=O)c2cc(NC(=O)c3cc(NC=O)cn3C)cn2C)cc1C(=O)NCCC(=N)N` has what z-score?
stdout: 0.0863

stdin: Entry `CN(C)/C=C1\N=C(c2ccc(Cl)cc2Cl)OC1=O` has what z-score?
stdout: 2.52

stdin: Entry Cc1ccc(C(=O)CSC2=C(C#N)C(c3ccco3)C3=C(CCCC3=O)N2)cc1 (centres undefined) has what z-score?
stdout: -1.13

stdin: Entry `CCCCCc1ccc(-c2ccc(=O)[nH]n2)cc1` has what z-score?
stdout: -0.256

stdin: Entry `Fc1ccc2[nH]c3c(N4CCN(C5CCCCC5)CC4)ncnc3c2c1` has what z-score?
stdout: 0.234

stdin: Entry `COc1ccc(Nc2nc(Nc3ccc(OC)cc3)nc(-n3[nH]c(=O)c(C)c3C)n2)cc1` has what z-score?
stdout: 1.31

stdin: Entry O=C1C2CC=C(Cl)CC2C(=O)N1CNc1ccccn1 (centres undefined) has what z-score?
stdout: 1.18

stdin: Entry `O=C(NCc1cccnc1)/C(=N\O)c1ccccc1` has what z-score?
stdout: 0.0712

stdin: Entry COc1ccc(/C(O)=C2\C(=O)C(=O)N(c3cc(C)on3)C2c2ccccc2OC)cc1 (centres undefined) has what z-score?
stdout: 0.145

stdin: Entry CCCCNC(=O)C(C#N)c1nc2ccccc2nc1N1CCN(Cc2ccc3c(c2)OCO3)CC1 (centres undefined) has what z-score?
stdout: -1.11

stdin: Entry `CCOC(=O)CC(=O)CSc1nc(N)c(C#N)c(-c2ccc(F)cc2)c1C#N` has what z-score?
stdout: 0.96

stdin: Entry `CCn1cc(C(=O)O)c(=O)c2cc(F)c(N3CCNCC3)cc21` has what z-score?
stdout: -1.04

stdin: Entry `Fc1ccc(-c2cnc[nH]2)cc1` has what z-score?
stdout: 0.681

stdin: Entry COc1cccc(-c2nc(NCC3CCCO3)c3ccccc3n2)c1O (centres undefined) has what z-score?
stdout: 0.707

stdin: Entry CCCC1C2C(=O)N(c3ccccc3OC)C(=O)C2ON1c1ccccc1 (centres undefined) has what z-score?
stdout: 1.02

stdin: Entry `O=C(NCCO)c1cccc2c1C(=O)c1ccccc1-2` has what z-score?
stdout: 1.11

stdin: Entry CCC(C)n1ncn(-c2ccc(N3CCN(c4ccc(OCC5COC(Cn6cncn6)(c6ccc(Cl)cc6Cl)O5)cc4)CC3)cc2)c1=O (centres undefined) has what z-score?
stdout: -0.579

stdin: Entry `Cc1cc(C)n(C(=O)CN2C(=O)CCC2=O)n1` has what z-score?
stdout: -0.831

stdin: Entry CCOC(=O)c1ccc(NC(=O)CCC(CC)C(=O)O)cc1 (centres undefined) has what z-score?
stdout: -1.56

stdin: Entry `CC(C)(C)NC(=O)CSc1nsc(SCC(=O)NC(C)(C)C)c1C#N` has what z-score?
stdout: -1.37

stdin: Entry `COc1cc(/C=N/n2c(C)nnc2C)cc(OC)c1OC` has what z-score?
stdout: -0.553
